Reported pKd values follow for various binders
Target: T1, Recombinant soluble trimeric human BAFF (furin-cleaved human BAFF 134-285) (human, UniProt Q9Y275 134-285)
T1 construct: Made from His-tagged BAFF(72-285) by furin cleavage; trimeric status confirmed by analytical ultracentrifugation; also called Soluble trimeric huBAFF; soluble trimeric BAFF
Assay: SPR, antibody captured on Protein A/G, soluble trimeric BAFF flowed over, 1:1 Langmuir global fit, apparent affinity (at detection limit)
pKd: −log10 of the molar value.
value_type: pKd

binder	result
227D3B11 (antibody, V domains shown, Mouse lead antibody (hybridoma)) VH: QVQLQQPGAELVKPGASVKLSCKASGYSFSTFFIHWIQQRPGRGLEWIGRIDPNSGGTKYNEKFESKATLTVDKPSSTAYMHLSSLTSEDSAVYYCARGEDLLIRTDAMDYWGQGTSVTVSS VL: DIVMTQSQKIMSTTVGDRVSITCKASQNAGIDVAWFQQKPRQSPKLLIFSTSNRYTGVPDRFAGSGSGTDFTLTIYNVQSEDLADYFCLQYRSYPRTFGGGTKLEIK	> 11.00
235F5B9 (antibody, V domains shown, Mouse lead antibody (hybridoma)) VH: QVQLQQPGAELVKPGASVKLSCKASGYSFSTFFIHWIQQRPGRGLEWIGRIDPNSGATKYNEKFESKATLTVDKPSSTAYMHLSSLTSEDSAVYYCARGEDLLIRTDALDYWGQGTSVTVSS VL: DIVMTQSQKIMSTTVGDRVSITCKASQNAGIDVAWFQQKPRQSPKLLIFSKSNRYTGVPDRFAGSGSGTDFTLTIYNVQSEDLADYFCLQYRSYPRTFGGGTKLEIK	> 11.00
